Reference source: the supplement of paper PMC9170038

# Test system: MS2 coat protein
# assay_text: apparent KD of MS2 coat protein; designed switch direction (-1 OFF switch, 1 ON switch): -1; higher = weaker reporter binding
# reported_conditions: input ligand: microRNA oligo, concentration not stated
parameter_measured: apparent KD of MS2 coat protein (nM)

input_sequence	parameter_measured	endpoint_result
UAAUAAUAGCAAGGAUAUAGUUAUUAUAAUAUACUAGAAGGUGCACAUGAGGAUCACCCAUGUUUUAUAAUUUGUAAUUUAAAU [3rd something] (Eterna round: R96, puzzle: Exclusion NG 1)	apparent KD of MS2 coat protein	20.9
ACGUUCAUUGAACAUGAGGAUCACCCAUGUGGCCUCCGGGUGGAGGAUAUGCACCAGGCCGAGGUGUAGAAGGCCAUAUACCGA [Riraed] (Eterna round: R96, puzzle: Exclusion NG 3)	apparent KD of MS2 coat protein	49
GCACGGAGUGUAGGAUAUCUGUGCGAUUAGCUCAGAGAAGGACACAUGAGGAUCACCCAUGUGUAACUCAACAAUAAUCCGUGC [Eli exng1 - 073] (Eterna round: R96, puzzle: Exclusion NG 1)	apparent KD of MS2 coat protein	8.53
UUGUUAUAUGUAGGAUAUGCAUAUUAUUAUUAUGCAGAAGGACAUGAGGAUCACCCAUGUAUAUUAUUGUUAUAUGUUAUAUAU [Title] (Eterna round: R96, puzzle: Exclusion NG 1)	apparent KD of MS2 coat protein	16.6
CACCGUUACUGAGGAUAUCUUACAUGAGGAUCACCCAUGUAAUAAAUGAGAAUUUCGGAUGUAUUAGAGAAGGCAGAAAUCGGC [Ostricism 61 - Jieux - Exclusion NG 2] (Eterna round: R96, puzzle: Exclusion NG 2)	apparent KD of MS2 coat protein	16.3

* * *

Listed here: items and their measured apparent KD of MS2 coat protein.
# System: MS2 coat protein
# assay_text: apparent KD of MS2 coat protein; higher = weaker reporter binding
# reported_conditions: Eterna round: R107; input ligand: theophylline 20 uM
parameter_measured: apparent KD of MS2 coat protein (nM)

input_sequence	parameter_measured	endpoint_result
GCAUCCUAGUCGGCCGCCACUGGUACGAAUACCUUCACCCGUGUGCACAUGAGGAUCACCCAUGUCAGGACCGGGACUAGGAUGC [SSTryp B #23]	apparent KD of MS2 coat protein	13.8
UAUAGUACCAGACAUGAGGAUCACCCAUGUCGAGGACCGGUACGGCCGCCACUCGGCAGUUUGCGUCCUCAGGUACUCCGGGUCA [Larisotexe]	apparent KD of MS2 coat protein	28.3
UCGAUGGUACCCGAUACCAGCAAUACAUCACAGACCUGAUACAUGAGGAUCACCCAUGUGUGCCCUUGGCAGCGGGUCCUGAAAA [theeternabot_exclusion_MS2_Theo_B_25]	apparent KD of MS2 coat protein	28.5
GGGAGAUGAAUAGAAUGAGAUGACACAGAAGGAGCGUGAAUUAACACAGGUAGGUCGCUGACAACAUGAGGAUCACCCAUGUAUU [Same State Arginine A GF3]	apparent KD of MS2 coat protein	21.3
ACAUGAGGAUCACCCAUGUAUGAUGUUCCUCGAGGACCGGUACGGCCGCCACUCGAACGAGUGGCGCGCGCGCGCGCGCGCGCGC [aUa]	apparent KD of MS2 coat protein	35.1
GGCACUCUGUAAGAUACCAGACGUCGGUGCUUACAUGAGGAUCACCCAUGUUGCUUUUUAGUCCCUUGGCAGCUUCGGAUAACCA [Oniste]	apparent KD of MS2 coat protein	557
AUAAAUAUAACCGAUACCAGCCUUAUACAUGAGGAUCACCCAUGUUAUGCUUCCUUUCUUGGCCCUUGGCAGCGGAAAUGGGUAA [SSTheo B #13]	apparent KD of MS2 coat protein	48.4
ACAUGAGGAUCACCCAUGUCACGGCACGAUACCAGCUGAUGCGGUGGCCCUUGGCAGCGUGACGUUUGGUCCCGCGGAUGACGGG [zzmullin]	apparent KD of MS2 coat protein	74.3
CCCAACAUGAGGAUCACCCAUGUUCCGGGUCGAGGACCGGUACGGCCGCCACUCGGUAUGAUGGGUGUGCAGCGUAUCUGCACCA [theeternabot_sameState_MS2_Trp_A_22]	apparent KD of MS2 coat protein	61.1
UGUAUGUGAUGGGAUACCAGACCAGCUGGUGAUACAUGAGGAUCACCCAUGUAAAUUUGGGUCCCUUGGCAGCCCAUCGCAUACU [SSTheo B #25]	apparent KD of MS2 coat protein	68
UUUGAUAGGACAGAUACCAGCGUGUUAUAGAACAUGAGGAUCACCCAUGUAGUGAUCAAGCGCCCUUGGCAGCUGGUUUGUUAGG [7.K]	apparent KD of MS2 coat protein	350
GCUGCCAUACGAAGGAGCGCUGUUGCAAUGAGGCGAACAUGAGGAUCACCCAUGUGGCAGCAGCAGGUAGGUCGCGUAUGGCAGC [EAB #12]	apparent KD of MS2 coat protein	53.6
GACCGAUUAUAGCGCGAUUGUCUUGUGGAAGGAGCGCAGAGGGCUGCAGGUAGGUCGCCACAUGAGGAUCACCCAUGUCAGGAUA [Ananvediri]	apparent KD of MS2 coat protein	53.4
AUGUCGUUGAAUAUAGCGGCUUGGAGUGAUACCAGAAUGAUCCAAUUCCCUUGGCAGCAUUACAUGAGGAUCACCCAUGUUCCAG [SSTheo A #23]	apparent KD of MS2 coat protein	55.5
UGAUAUAGGGAGCCGUAUCAGAAACCUGAAGGAGCGCCGGAAAAGGCAGGUAGGUCGCGGGAACAUGAGGAUCACCCAUGUAUUC [dancer_small]	apparent KD of MS2 coat protein	21.2
UCGCUCUGGGUGGGAUCCGGAGAUGUGGAAGGAGCGCUGGUUACAGCAGGUAGGUCGCCAACGGACAUGAGGAUCACCCAUGUAC [Same State - Arginine A (Freestyle 16)]	apparent KD of MS2 coat protein	49.4
AUACAUGAGGAUCACCCAUGUGAUGGCCGGCGAGGACCGGUACGGCCGCCACUCGUGAUCCGUCCUGAAAGCAAAGCUUCCAGCA [Terion]	apparent KD of MS2 coat protein	273
CUUAUAUAUAGAAGGAGCGACAUGAGGAUCACCCAUGUCUACCACGUCGAAAGACGCUCAUGUCAGGUAGGUCGCUAUAUAUAAG [Astros-Eli-mod3]	apparent KD of MS2 coat protein	138
CAAGAGUUGUACAUUGUGAGGCGUCGGGAACGAGGACCGGUACGGCCGCCACUCGAAAAUUAACAUGAGGAUCACCCAUGUACAC [theeternabot_exclusion_MS2_Trp_A_35]	apparent KD of MS2 coat protein	72.7
AUUGUCGUGUCGGCCGCCACUGUCAUGGUUUUCGUGGAAAACAUGAGGAUCACCCAUGUAAUUGACAGGACCGGGACAUGGCGGC [Ricegesoer]	apparent KD of MS2 coat protein	11.1
GGCCGAUGGUGCGAUACCAGCUUGAGUGUACUGGCCAGGUACAUGAGGAUCACCCAUGUAAGCCCUUGGCAGCGCGUCAAAGGCC [#1 Exclusion - Theophylline B Attempt #20 (HarryS)]	apparent KD of MS2 coat protein	17.6
AUAACAUGAGGAUCACCCAUGUAAGCUGAAGGAGCGCUGGAAACAGCAGGUAGGUCGCAGCGGCGACCUUCCUCAUGAAGGUCGC [(M1)-(M2)-(Arg1)-(Arg2)-(A)'-(M)'-(A)''_Design5]	apparent KD of MS2 coat protein	25.6
AUGCAUAGCACGGCCGCCACUCAAAUUAAACAUGAGGAUCACCCAUGUAACAUGGAUAAAAUAAAGAGGACCGGGUGAAAUGCAA [JR_SSTryptoB_Sub010]	apparent KD of MS2 coat protein	36.2

* * *

# Tested on: MS2 coat protein
# assay_text: apparent KD of MS2 coat protein; designed switch direction (-1 OFF switch, 1 ON switch): -1; higher = weaker reporter binding
# reported_conditions: input ligand: microRNA oligo, concentration not stated
Listed here: items and their measured apparent KD of MS2 coat protein.

input_sequence	apparent KD of MS2 coat protein, nM
GGUAGAGUGGUAGGAUAUCCGACUGAAACAGACGGAGAAGGACCACAGUCACUGGGUCCAAAUAUAAUAAACAAUAAAUCUACC [pwkr exNG1 F6.1] (Eterna round: R96, puzzle: Exclusion NG 1)	212
GUUGUUUAUGUAGGAUAUGCCUGGCGUGCCUAAGCAGAAGGACAUGAGGAUCACCCAUGUAUUGCGGUCUGCGUUCAGAUCGCU [salish99_ExNG1_r4_019] (Eterna round: R96, puzzle: Exclusion NG 1)	17.2
AAUCAUAGGUAAGGAUAUGAAGAUCUGGUGGUGACAUGAGGAUCACCCAUGUGAAAACGAUGAGAUCAGAAGGUACAAUAUGAA [AK ExNG2-4] (Eterna round: R96, puzzle: Exclusion NG 2)	18
UAUAUAUAGUAAGGAUAUAUAUUUUUUUUAUAAAUAGAAGGUACAGACAUGAGGAUCACCCAUGUUAUAAUAUGGACAUGUGGA [JMF's Solution 2] (Eterna round: R96, puzzle: Exclusion NG 1)	77.4
AGUACUAUCACGAAAGUGAUAGUACAAAUAGCAAGUGAAACAUGAGGAUCACCCAUGUCCUCAUUUGCUCGUCUUAA [Mat - Sensor v2 -ver2- JL mod - D66] (Eterna round: R96, puzzle: Sensor v2, turn-off variant 2)	320
